Cited source for all entries: patent US9566312B2

- experimentalSystem: cyclophilin B (CypB) (Homo sapiens (Human), UniProt P23284)
- Sequence (P23284 34-216): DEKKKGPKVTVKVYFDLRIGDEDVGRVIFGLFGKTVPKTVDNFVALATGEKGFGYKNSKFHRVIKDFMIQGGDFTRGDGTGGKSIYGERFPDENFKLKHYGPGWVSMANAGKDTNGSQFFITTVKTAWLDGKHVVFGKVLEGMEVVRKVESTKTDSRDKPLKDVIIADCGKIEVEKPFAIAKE
- testSummary: Inhibitor binding to cyclophilin proteins by SPR, CypB
- Parameters: unit not given here
- particulars: 1:1 binding model
Starred links: 1 amine or outer side, 2 acyl side, 3 side chain; linkers in the order of their positions; H or OH if unused. Non-standard residues stand in square brackets, D forms with d. Residues, ends and D or L forms follow the SMILES beside them. X40 = C[C@H](COCC(=O)N1CCNCC1)[C@@H](C(=O)[*:2])N(C)[*:1]; MeBmt = C/C=C/C[C@@H](C)[C@@H](O)[C@H](NC)C(=O)O; NMeL = CN[C@@H](CC(C)C)C(=O)O; NMeV = CN[C@H](C(=O)O)C(C)C; dNMeA = CN[C@H](C)C(=O)O; Abu = CC[C@H](N)C(=O)O
readoutType: CypB Kd

Task: Provide measured CypB Kd on cyclophilin B (CypB) (Homo sapiens (Human), UniProt P23284) for C/C=C/C[C@@H](C)[C@@H](O)[C@H]1C(=O)N[C@@H](CC)C(=O)N(C)[C@H](C)C(=O)N(C)[C@@H]([C@H](C)COCC(=O)N2CCNCC2)C(=O)N[C@@H](C(C)C)C(=O)N(C)[C@@H](CC(C)C)C(=O)N[C@@H](C)C(=O)N[C@H](C)C(=O)N(C)[C@@H](CC(C)C)C(=O)N(C)[C@@H](CC(C)C)C(=O)N(C)[C@@H](C(C)C)C(=O)N1C [Compound 2.6.1] (cyclo(A[dA][NMeL][NMeL][NMeV][MeBmt][Abu][dNMeA][X40]V[NMeL])) please.
Output: 0.7

###

- experimentalSystem: cyclophilin B (CypB) (Homo sapiens (Human), UniProt P23284)
- testSummary: Inhibitor binding to cyclophilin proteins by SPR, CypB
- Parameters: unit not given here
- particulars: 1:1 binding model
Starred links: 1 amine or outer side, 2 acyl side, 3 side chain; linkers in the order of their positions; H or OH if unused. Non-standard residues stand in square brackets, D forms with d. Residues, ends and D or L forms follow the SMILES beside them. X18 = C[C@H](CCC(C)(C)O)[C@@H](C(=O)[*:2])N(C)[*:1]; X65 = C[C@H](CCN1CCCCC1)[C@@H](C(=O)[*:2])N(C)[*:1]; MeBmt = C/C=C/C[C@@H](C)[C@@H](O)[C@H](NC)C(=O)O; NMeL = CN[C@@H](CC(C)C)C(=O)O; NMeV = CN[C@H](C(=O)O)C(C)C; dNMeA = CN[C@H](C)C(=O)O; Abu = CC[C@H](N)C(=O)O
What CypB Kd was measured for each of the following?
// return a plain number; no unit text

Task: Look up and state reported CypB Kd for C/C=C/C[C@@H](C)[C@@H](O)[C@H]1C(=O)N[C@@H](CC)C(=O)N(C)[C@H](C)C(=O)N(C)[C@@H]([C@H](C)CCN2CCCCC2)C(=O)N[C@@H](C(C)C)C(=O)N(C)[C@@H](CC(C)C)C(=O)N[C@@H](C)C(=O)N[C@H](C)C(=O)N(C)[C@@H](CC(C)C)C(=O)N(C)[C@@H](CC(C)C)C(=O)N(C)[C@@H](C(C)C)C(=O)N1C [Compound 2.18.8] (cyclo(A[dA][NMeL][NMeL][NMeV][MeBmt][Abu][dNMeA][X65]V[NMeL]))
Output: 0.7

Task: Dear colleague, please send me the reported CypB Kd for C/C=C/C[C@@H](C)[C@@H](O)[C@H]1C(=O)N[C@@H](CC)C(=O)N(C)[C@H](C)C(=O)N(C)[C@@H]([C@H](C)CCC(C)(C)O)C(=O)N[C@@H](C(C)C)C(=O)N(C)[C@@H](CC(C)C)C(=O)N[C@@H](C)C(=O)N[C@H](C)C(=O)N(C)[C@@H](CC(C)C)C(=O)N(C)[C@@H](CC(C)C)C(=O)N(C)[C@@H](C(C)C)C(=O)N1C [Compound 2.12] (cyclo(A[dA][NMeL][NMeL][NMeV][MeBmt][Abu][dNMeA][X18]V[NMeL])) when you can.
Output: 1.1

###

Starred links: 1 amine or outer side, 2 acyl side, 3 side chain; linkers in the order of their positions; H or OH if unused. Non-standard residues stand in square brackets, D forms with d. Residues, ends and D or L forms follow the SMILES beside them. NMeAbu(3S-Me,4-OC2H4Mor) = CN[C@H](C(=O)O)[C@H](C)COCCN1CCOCC1; X16 = C[C@H](CN1CCN(S(C)(=O)=O)CC1)[C@@H](C(=O)[*:2])N(C)[*:1]; X5 = C[C@H](COC(=O)N1CCN(C)CC1)[C@@H](C(=O)[*:2])N(C)[*:1]; X4 = C[C@H](CS(C)(=O)=O)[C@@H](C(=O)[*:2])N(C)[*:1]; X3 = C[C@H](CN1CCOCC1)[C@@H](C(=O)[*:2])N(C)[*:1]; MeBmt = C/C=C/C[C@@H](C)[C@@H](O)[C@H](NC)C(=O)O; NMeL = CN[C@@H](CC(C)C)C(=O)O; NMeV = CN[C@H](C(=O)O)C(C)C; dNMeA = CN[C@H](C)C(=O)O; Abu = CC[C@H](N)C(=O)O
Record set of pIC50 for target or system Human MRP2 (Homo sapiens (Human), UniProt Q92887).
Scale for pIC50: -log10 of concentration given in mol/L; no unit attached.

Task: Return pIC50 (reported value) for this compound: C/C=C/C[C@@H](C)[C@@H](O)[C@H]1C(=O)N[C@@H](CC)C(=O)N(C)[C@H](C)C(=O)N(C)[C@@H]([C@H](C)COC(=O)N2CCN(C)CC2)C(=O)N[C@@H](C(C)C)C(=O)N(C)[C@@H](CC(C)C)C(=O)N[C@@H](C)C(=O)N[C@H](C)C(=O)N(C)[C@@H](CC(C)C)C(=O)N(C)[C@@H](CC(C)C)C(=O)N(C)[C@@H](C(C)C)C(=O)N1C [Compound 2.5.9] (cyclo(A[dA][NMeL][NMeL][NMeV][MeBmt][Abu][dNMeA][X5]V[NMeL]))
Output: 4.68

Task: Return reported pIC50. Input compound: C/C=C/C[C@@H](C)[C@@H](O)[C@H]1C(=O)N[C@@H](CC)C(=O)N(C)[C@H](C)C(=O)N(C)[C@@H]([C@H](C)COCCN2CCOCC2)C(=O)N[C@@H](C(C)C)C(=O)N(C)[C@@H](CC(C)C)C(=O)N[C@@H](C)C(=O)N[C@H](C)C(=O)N(C)[C@@H](CC(C)C)C(=O)N(C)[C@@H](CC(C)C)C(=O)N(C)[C@@H](C(C)C)C(=O)N1C [Compound 2.8.1] (cyclo(A[dA][NMeL][NMeL][NMeV][MeBmt][Abu][dNMeA][NMeAbu(3S-Me,4-OC2H4Mor)]V[NMeL]))
Output: 4.64

Task: Fill in reported pIC50 for this entry: C/C=C/C[C@@H](C)[C@@H](O)[C@H]1C(=O)N[C@@H](CC)C(=O)N(C)[C@H](C)C(=O)N(C)[C@@H]([C@H](C)CN2CCN(S(C)(=O)=O)CC2)C(=O)N[C@@H](C(C)C)C(=O)N(C)[C@@H](CC(C)C)C(=O)N[C@@H](C)C(=O)N[C@H](C)C(=O)N(C)[C@@H](CC(C)C)C(=O)N(C)[C@@H](CC(C)C)C(=O)N(C)[C@@H](C(C)C)C(=O)N1C [Compound 2.5.5] (cyclo(A[dA][NMeL][NMeL][NMeV][MeBmt][Abu][dNMeA][X16]V[NMeL]))
Output: 4.89

Task: State its pIC50: C/C=C/C[C@@H](C)[C@@H](O)[C@H]1C(=O)N[C@@H](CC)C(=O)N(C)[C@H](C)C(=O)N(C)[C@@H]([C@H](C)CN2CCOCC2)C(=O)N[C@@H](C(C)C)C(=O)N(C)[C@@H](CC(C)C)C(=O)N[C@@H](C)C(=O)N[C@H](C)C(=O)N(C)[C@@H](CC(C)C)C(=O)N(C)[C@@H](CC(C)C)C(=O)N(C)[C@@H](C(C)C)C(=O)N1C [Compound 2.5.2] (cyclo(A[dA][NMeL][NMeL][NMeV][MeBmt][Abu][dNMeA][X3]V[NMeL]))
Output: 4.74

Task: Supply reported pIC50 belonging to this compound: C/C=C/C[C@@H](C)[C@@H](O)[C@H]1C(=O)N[C@@H](CC)C(=O)N(C)[C@H](C)C(=O)N(C)[C@@H]([C@H](C)CS(C)(=O)=O)C(=O)N[C@@H](C(C)C)C(=O)N(C)[C@@H](CC(C)C)C(=O)N[C@@H](C)C(=O)N[C@H](C)C(=O)N(C)[C@@H](CC(C)C)C(=O)N(C)[C@@H](CC(C)C)C(=O)N(C)[C@@H](C(C)C)C(=O)N1C [Compound 2.4] (cyclo(A[dA][NMeL][NMeL][NMeV][MeBmt][Abu][dNMeA][X4]V[NMeL]))
Output: 5.05
